tested on: SF-268 CNS; experiment: NCI-60 one-dose screen, 48 h (100 = growth as untreated, 0 = no growth, -100 = all killed); conditions: 10 µM unless noted
The panel holds about 83,000 compounds, 20% with a hit somewhere; the sample as a whole holds those more often.
Hi, to clarify the labels: Fulfilled covers growth from 70% upward, Not fulfilled covers anything below 70%.

# example entries with known answers
CC1=NN(C2=NC(=O)C(CC(=O)Nc3ccccc3C(F)(F)F)S2)C(c2ccc(N(C)C)cc2)C1 (centres undefined) = Not fulfilled
COc1cc(CNC(=O)C[C@H](C)CCC=C(C)C)ccc1OCc1cn(-c2ccc(Cl)c(Cl)c2)nn1 = Not fulfilled
Nc1cc2ccccc2c(=O)n1NC(=O)c1ccc(Br)cc1 = Fulfilled

Check this compound for growth at or above 70%: `N/C(=N\c1nc2ccccc2s1)NC(=O)Nc1ccccc1[N+](=O)[O-]`
Not fulfilled

hey, is growth for this one >= 70%? `CC(C)(C)C(=O)c1c2c(c3ccc4c5ccccc5ccc4n13)C(=O)c1ccccc1C2=O`
Fulfilled

Check if growth >= 70% (inclusive). Item: `COc1ccc(NC(=O)Nc2nc3ccc([N+](=O)[O-])cc3s2)cc1`
Not fulfilled

Assess whether reported growth for `Nc1nnc(CS(=O)(=O)c2ccccc2)s1` sits at 70% or higher.
Fulfilled

Check the entry `Cc1ccc2c(c1)/C(=C/C(=O)c1cc3ccccc3oc1=O)C(=O)N2` : does growth equal or exceed 70%?
Fulfilled

Item `Cc1ccc(NC(=O)N/N=C/c2c[nH]c3ccccc23)c(C)c1` with growth of 70% or above?
Not fulfilled

Exam item: decide whether the reported growth for `C/C(=N\Nc1ccc(S(N)(=O)=O)cc1)c1cnn(-c2cc(=O)[nH]c3ccc(Br)cc23)c1C` is at least 70%.
Not fulfilled

Does `O=C1c2cccc3c(N4CCN(Cc5ccccc5)CC4)ccc(c23)C(=O)N1c1cccc(-c2nn(-c3ccccc3)cc2-c2nc3ccccc3s2)c1` have a reported growth of at least 70%?
Fulfilled

Tell me whether growth is at least 70% here: `CC[C@]12C=CCN3CC[C@]4(C(=C(C(=O)OC)C1)Nc1cc(OC)c([C@@H]5[C@H]6O[C@H]6[C@@]6(CC)CC(C(=O)OC)=C7Nc8cc(OC)ccc8[C@@]78CCN5[C@@H]68)cc14)[C@@H]32`
Not fulfilled

Check if growth >= 70% (inclusive). Item: COc1ccc(C2=Nc3c(N)nc(N)nc3NC(c3ccc(Oc4nc(Nc5ccc(F)cc5)nc(N(C)C)n4)c(OC)c3)C2)cc1 (centres undefined)
Not fulfilled

Entry O=C(c1ccc(O)cc1)C1[C@H](c2ccc(Cl)cc2)[C@@H](c2ccccc2)NC12C(=O)Nc1ccc(Br)cc12 (some centres undefined) : is its growth no less than 70%?
Not fulfilled

Does the compound `COc1ccc(-c2nc3ccccc3n2CC(=O)N=Nc2c(O)[nH]c3ccc(Br)cc23)cc1` have recorded growth that is 70% or more?
Fulfilled

Please tell me: is the compound `CCCCCCCCCCCCCCCCCC(=O)Nc1ccc(OC)cc1` at or over 70% in terms of growth?
Fulfilled

Decide: is the reported value of growth for `O=C(Nc1ccc(-c2ccc3c(c2)NC(=O)/C3=C\c2ccc[nH]2)cc1)Nc1ccc(Cl)c(Cl)c1` equal to or greater than 70%?
Not fulfilled

###

system: SR leukemia; assay: NCI-60 one-dose screen, 48 h (100 = growth as untreated, 0 = no growth, -100 = all killed); settings: 10 µM unless noted
The panel holds about 83,000 compounds, 20% with a hit somewhere; the sample as a whole holds those more often.
Decision: growth compared against 30%; not below it gives Condition met, below it gives Condition not met.

For orientation, consider the following solved cases.
CC(C)CN1C(=O)/C(=C\C(=O)c2cc3ccccc3oc2=O)c2ccccc21 = Condition met
Cc1nn(-c2ccccc2)c2ncn(CC(=O)N/N=C/c3ccccc3O)c(=O)c12 = Condition not met
C/C(=N\Nc1ccc(S(N)(=O)=O)cc1)c1cnn(-c2cc(=O)[nH]c3ccc(Br)cc23)c1C = Condition not met
CN(C(=O)CN1C(=O)/C(=C/c2ccco2)SC1=S)C1CCS(=O)(=O)C1 (configuration not stated) = Condition met
COc1cncc(-c2ccc3ncnc(N4CCc5ccc(Cl)cc54)c3c2)c1 = Condition not met
Cc1ccc(S(=O)(=O)N(CCn2ccnc2[N+](=O)[O-])CCn2ccnc2[N+](=O)[O-])cc1 = Condition met
Cc1cc(C)c2[nH]c(=O)c(C(c3nnnn3Cc3ccc4c(c3)OCO4)N3CCN(C)CC3)cc2c1 (configuration not stated) = Condition met
Nc1ccc(-c2ccc3ncnc(N4CCc5cc(F)c(Cl)cc54)c3c2)cn1 = Condition not met
O=C(CSc1nc2sc3c(c2c(=O)n1-c1ccc(Cl)cc1)CCCC3)NNC(=O)c1ccc(F)cc1 = Condition met
COc1ccc2ccccc2c1/C=C1\SC(=Nc2ccc(O)cc2)NC1=O = Condition not met

Would you say ClC(Cn1ncc2c(Nc3cccc(Br)c3)nc(SCCN3CCOCC3)nc21)c1ccc(Br)cc1 (configuration not stated) shows growth at minimum 30%?
Condition not met

Assess whether reported growth for `C=CCSc1nnc(-c2ccc(-c3nc4ccc(Cl)cc4[nH]3)cc2)o1` sits at 30% or higher.
Condition not met

Is growth at least 30%? Consider `NS(=O)(=O)c1ccc(Nc2nc(N/N=C/c3cc(Br)c(O)c(Br)c3)nc(Nc3ccccc3)n2)cc1`
Condition not met

Exam item: decide whether the reported growth for `Cc1[nH]nc2ccc3nc(-c4cn[nH]c4C(F)(F)F)c4c(c3c12)CCCC4` is at least 30%.
Condition not met

Please check the record `NCCCCn1c(SCCc2c[nH]c3ccccc23)nnc1-c1ccc2ccccc2n1` and state if its growth is at or above 30%.
Condition not met

Item `CC(C)C[C@H](NC(=O)[C@@H]1CCCCCCCCCCC(=O)N[C@@H](CC(=O)N2CCC[C@@H]2C2CCCC2)C(=O)N1)B(O)O` with growth of 30% or above?
Condition not met

Check if growth >= 30% (inclusive). Item: `Cn1cc(-c2cc(N)n3nc(-c4c[nH]c5ccc(Cl)cc45)cc3n2)c2cc(Br)cnc21`
Condition not met

Is the recorded value of growth equal to or greater than 30% for this molecule? `O=C(CSc1nc2sc3c(c2c(=O)n1-c1ccc(Cl)cc1)CCCC3)N/N=C/C=C/c1ccccc1`
Condition not met

Is the recorded value of growth equal to or greater than 30% for this molecule? O=C(c1ccc(O)cc1)C1[C@H](c2ccc(Cl)cc2)[C@@H](c2ccccc2)NC12C(=O)Nc1ccccc12 (some centres not stated)
Condition not met

Please tell me: is the molecule `CN(C)c1nc(NCCNS(=O)(=O)c2ccc(C(=O)/C=C/c3ccc(F)cc3)cc2)nc(N2CCOCC2)n1` at or over 30% in terms of growth?
Condition not met

###

tested on: DU-145 prostate; test: NCI-60 one-dose screen, 48 h; conditions: 10 µM unless noted
About 83,000 compounds went through this panel and 20% of them were active in at least one assay; those are over-represented in the sample as a whole. Activity calls are given as the source filed them. The calls were made as follows: active = growth percent below 10; inactive = the rest.
Respond with a class label; see active, inactive

COC(=O)c1c(C(=O)OC)c2ccc3c4ccccc4ccc3n2c1C(=O)C(C)Br (centres undefined) = inactive
COc1ccc(N=Nc2c(N)nn3c(N)c(C#N)c(-c4ccc(C)cc4)nc23)cc1 = inactive
COc1ccc(SC2c3cc(OC)ccc3Oc3nc(N)c(C#N)c(N)c32)cc1 (centres undefined) = inactive
N#C/C(=C/c1ccc(Cl)cc1)c1nnc(NC(=O)c2ccc(-n3c(=O)[nH]c4ccccc4c3=O)cc2)s1 = inactive
S=C(Nc1ccccc1)Nc1ccc(OCc2nc3ccc(Cl)cc3[nH]2)cc1 = inactive

Identify the outcome logged in this assay for the compound shown: `CCN1CCN(Cc2ccc(C(=O)Nc3cccc(Nc4ccc5c(OC)cccc5n4)c3)cc2C(F)(F)F)CC1`
active

What call does the record list for `O=C1c2cccc3c(N4CCN(Cc5ccccc5)CC4)ccc(c23)C(=O)N1c1cccc(-c2nn(-c3ccccc3)cc2-c2nc3ccccc3s2)c1` ?
inactive

# outcome recorded in this test, key = CC1CCc2c(sc3nc(SCC(=O)c4cccc([N+](=O)[O-])c4)n(-c4ccccc4)c(=O)c23)C1 (centres undefined)
inactive

Which outcome was entered for the compound COc1ccc([C@H]2C(C(=O)c3ccc(Cl)cc3)C3(N[C@@H]2c2ccccc2)C(=O)Nc2ccccc23)cc1 (some centres undefined) in this test?
inactive

###

system: ACHN renal; assay: NCI-60 one-dose screen, 48 h (100 = growth as untreated, 0 = no growth, -100 = all killed); details: 10 µM unless noted
The panel holds about 83,000 compounds, 20% with a hit somewhere; the sample as a whole holds those more often.
property_measured: growth (%)
Numbers only, in %.

O=C1Nc2ccccc2/C1=C/C(=O)c1cc2ccccc2oc1=O = -47.6

List the reported growth of each molecule below.
1. O=C(c1ccc(Cl)cc1)C1[C@H](c2ccccc2Cl)[C@@H](c2ccccc2)NC12C(=O)Nc1ccc(Cl)cc12 (stereo partly drawn)
2. CCCCCCCCc1ccc(C(=O)Nc2cccc(O)c2)cc1
3. COc1ccccc1/C=C/c1cccc(NC(=S)NCCCCN(C)C)c1
4. Cc1ccc(C(C(=O)NC2CCCCC2)N(Cc2ccccc2Cl)C(=O)c2ccc(CN3CCOCC3)o2)o1 (stereo not drawn)
5. Cc1nn(-c2ccccc2)c2ncn(CC(=O)N/N=C/c3ccccc3O)c(=O)c12
6. CN(CCSSCCN1CCOCC1)C(=O)Oc1cc2c(c3ccccc13)[C@H](CCl)CN2C(=O)c1cc2cc(OCCCN3CCC3)ccc2[nH]1

1: -26.1; 2: 57.3; 3: -100; 4: 104; 5: 21.4; 6: -66.8
